ASSAYED TARGET: GST-Hu-p50 (Homo sapiens, UniProt P19838 7-356)
Sequence (P19838 7-356): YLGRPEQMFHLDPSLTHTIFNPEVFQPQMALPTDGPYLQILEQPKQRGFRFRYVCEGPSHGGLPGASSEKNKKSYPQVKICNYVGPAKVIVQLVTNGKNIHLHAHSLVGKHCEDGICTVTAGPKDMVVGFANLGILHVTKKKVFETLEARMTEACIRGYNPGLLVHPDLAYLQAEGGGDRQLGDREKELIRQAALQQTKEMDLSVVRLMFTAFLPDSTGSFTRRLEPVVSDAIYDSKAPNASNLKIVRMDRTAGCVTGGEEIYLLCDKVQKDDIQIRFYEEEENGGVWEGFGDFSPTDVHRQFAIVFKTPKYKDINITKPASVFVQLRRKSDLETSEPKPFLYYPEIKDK
PROTOCOL DESCRIPTION: protein-binding microarray (PBM); PBM: ~300 nM protein, 6 mM HEPES pH 7.8, 80 mM KCl, 0.5 mM EDTA, 0.5 mM EGTA, 6% glycerol, 35 ng/ul poly-dIdC, 1% milk, 1 h, room temperature; Ap Aiptasia and Nv Nematostella (sea anemones) / Co Capsaspora / Aq Amphimedon (sponge) / Dm Drosophila / Hu human; RHD is the Rel homology domain; high values mean tight binding
MEASUREMENT SETUP: dsDNA, one strand shown
TEST READOUT: binding signal (z-score)
# unit: z-score | format: bare number

Solved cases (8 shown):
sequence_text=CCGATTAACATCAATTCCCCTGATGATGTTAATCGGGTCTTGATTCGCTTGACGCTGCTG readout_value=5.75
sequence_text=CCGATTAACATCAAGAAATTCCCTGATGTTAATCGGGTCTTGATTCGCTTGACGCTGCTG readout_value=5.84
sequence_text=CCGATTAACATCACGGAATCCCCTGATGTTAATCGGGTCTTGATTCGCTTGACGCTGCTG readout_value=6.67
sequence_text=CCGATTAACATCAGGGGAAGTCATGATGTTAATCGGGTCTTGATTCGCTTGACGCTGCTG readout_value=5.27
sequence_text=CCGATTAACATCAGGGAATATACTGATGTTAATCGGGTCTTGATTCGCTTGACGCTGCTG readout_value=2.3
sequence_text=CCGATTAACATCAAATTTCCCACTGATGTTAATCGGGTCTTGATTCGCTTGACGCTGCTG readout_value=4.02
sequence_text=CCGATTAACATCAAATTTCCCCTTGATGTTAATCGGGTCTTGATTCGCTTGACGCTGCTG readout_value=7.51
sequence_text=CCGATTAACATCAAAACCCCCCTTGATGTTAATCGGGTCTTGATTCGCTTGACGCTGCTG readout_value=7

State its binding signal for this sequence: CCGATTAACATCAGGGGGTTGCATGATGTTAATCGGGTCTTGATTCGCTTGACGCTGCTG
5.29

State its binding signal for this sequence: CCGATTAACATCAAGGGGACTTCTGATGTTAATCGGGTCTTGATTCGCTTGACGCTGCTG
6.74

State its binding signal for this sequence: CCGATTAACATCAAGAGATCCCCTGATGTTAATCGGGTCTTGATTCGCTTGACGCTGCTG
4.57

State its binding signal for this sequence: CCGATTAACATCACGTGATTCCCTGATGTTAATCGGGTCTTGATTCGCTTGACGCTGCTG
1.11

State its binding signal for this sequence: CCGATTAACATCAAGTTTTCCCCTGATGTTAATCGGGTCTTGATTCGCTTGACGCTGCTG
6.59

State its binding signal for this sequence: CCGATTAACATCAAATAAGTCCCTGATGTTAATCGGGTCTTGATTCGCTTGACGCTGCTG
4.56
